tested on: PPARg:RXRa DBDmut IVT, anti-RXR (DBD mutation: RXRa K156A/R161A, NR concentration 270 nM, RXRa partner concentration 90 nM); test: PBM binding z-score (relative to random genomic background probes); higher = stronger binding; sequences stand for … in GC…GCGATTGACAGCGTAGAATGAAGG
Measured Parameter: PBM binding z-score

> print(dat)
                      sequence.content   measured.parameter  measured
 1  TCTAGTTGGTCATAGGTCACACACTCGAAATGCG  PBM binding z-score      2.59
 2  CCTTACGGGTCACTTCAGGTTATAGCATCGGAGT  PBM binding z-score      3.08
 3  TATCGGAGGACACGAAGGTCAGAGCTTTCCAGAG  PBM binding z-score     0.135
 4  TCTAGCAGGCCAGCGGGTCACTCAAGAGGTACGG  PBM binding z-score     0.972
 5  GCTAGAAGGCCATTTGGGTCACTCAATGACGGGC  PBM binding z-score      1.13
 6  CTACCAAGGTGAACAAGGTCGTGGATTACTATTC  PBM binding z-score      2.25
 7  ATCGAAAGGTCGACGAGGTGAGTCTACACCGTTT  PBM binding z-score     0.545
 8  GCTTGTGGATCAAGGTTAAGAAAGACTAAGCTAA  PBM binding z-score     0.991
 9  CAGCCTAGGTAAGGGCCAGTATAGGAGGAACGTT  PBM binding z-score    -0.707
10  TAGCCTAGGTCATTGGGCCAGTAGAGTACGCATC  PBM binding z-score      2.83
11  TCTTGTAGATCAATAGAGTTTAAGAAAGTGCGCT  PBM binding z-score      1.58
12  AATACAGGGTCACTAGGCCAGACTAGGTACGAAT  PBM binding z-score      4.01
